target-or-test-system: β-catenin (Homo sapiens)
Sequence (P35222 2-781): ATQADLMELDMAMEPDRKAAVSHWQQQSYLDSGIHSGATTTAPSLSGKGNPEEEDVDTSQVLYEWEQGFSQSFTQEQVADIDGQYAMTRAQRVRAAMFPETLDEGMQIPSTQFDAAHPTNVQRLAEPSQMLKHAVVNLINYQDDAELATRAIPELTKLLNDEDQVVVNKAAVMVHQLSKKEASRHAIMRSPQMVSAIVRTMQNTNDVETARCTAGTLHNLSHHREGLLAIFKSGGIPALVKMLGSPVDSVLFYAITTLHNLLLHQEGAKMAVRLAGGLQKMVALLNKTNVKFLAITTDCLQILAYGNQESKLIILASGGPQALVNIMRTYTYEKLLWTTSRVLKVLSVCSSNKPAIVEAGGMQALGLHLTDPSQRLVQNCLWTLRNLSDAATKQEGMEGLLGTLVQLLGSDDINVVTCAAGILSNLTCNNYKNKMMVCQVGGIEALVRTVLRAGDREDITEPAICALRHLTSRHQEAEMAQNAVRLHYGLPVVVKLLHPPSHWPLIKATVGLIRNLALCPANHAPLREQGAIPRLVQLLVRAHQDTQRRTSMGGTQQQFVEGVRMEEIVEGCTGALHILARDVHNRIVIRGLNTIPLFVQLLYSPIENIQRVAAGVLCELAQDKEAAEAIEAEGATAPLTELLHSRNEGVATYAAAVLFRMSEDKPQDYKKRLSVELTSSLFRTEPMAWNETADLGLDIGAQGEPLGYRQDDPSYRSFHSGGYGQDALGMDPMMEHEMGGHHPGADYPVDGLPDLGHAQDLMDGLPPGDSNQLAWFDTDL
measurement-kind: Kd (µM)

compound="Cc1cccc2c3c(ccc12)C1=C(C(=O)C3=O)[C@@H](C)CO1 [DHTS, 15,16-Dihydrotanshinone I]" unit_spec=µM numeric_value=14.6

# credit: paper PMC12639897
